Listing of recorded pEC50 by entry.
- Tested on: WM115 melanoma cells
- TEST: Cellular assays, EC50 quoted in text without S100B level
- Assay type: cell-based, human
- CONDITION PARAMETERS: Homo sapiens, WM-115, read-out: EC50 in cellular assays
pEC50: −log10 of the molar value.

Here are 3 compounds together with their reported answers.
[
  {
    "COMPOUND": "c1cc(C2=NCCCCN2)ccc1OCCCCCCCCOc1ccc(C2=NCCCCN2)cc1",
    "pEC50": "4.70 to 5.30"
  },
  {
    "COMPOUND": "CCCN(CCCOc1ccc(C(=N)N)cc1)CCCOc1ccc(C(=N)N)cc1 [16b]",
    "pEC50": "< 3.30"
  },
  {
    "COMPOUND": "N=C(N)c1ccc(OCCCN(CCCOc2ccc(C(=N)N)cc2)Cc2ccccc2)cc1 [16a]",
    "pEC50": "4.30 to 4.40"
  }
]

## Task Under WM115 melanoma cells: pEC50 value of c1cc(C2=NCCCN2)ccc1OCCCCCCCCOc1ccc(C2=NCCCN2)cc1 ?
## Result 4.35 to 4.60

## Task Further, for c1cc(C2=NCCCCN2)ccc1OCCCCCOc1ccc(C2=NCCCCN2)cc1 ?
## Result 4.70 to 5.30

* * *

- EXPERIMENTAL TARGET: Ca^2+-S100B (Rattus norvegicus)
- Sequence (P04631 1-92): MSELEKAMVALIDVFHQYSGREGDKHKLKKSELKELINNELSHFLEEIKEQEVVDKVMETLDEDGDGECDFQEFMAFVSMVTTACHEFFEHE
- TEST: HSQC NMR of Ca2+-loaded S100B with SBiX compounds
- Type: binding
- CONDITION PARAMETERS: result in words
OBSERVABLE: binding to Ca^2+-S100B as measured using NMR

[
  {
    "COMPOUND": "N=C(NC(=O)Nc1ccccc1)c1ccc(OCCCCCCCOc2ccc(C(=N)NC(=O)Nc3ccccc3)cc2)cc1 [compound 10]",
    "REPORTED VALUE": "ability to bind"
  },
  {
    "COMPOUND": "CNC(=O)NC(=N)c1ccc(OCCCCCCCOc2ccc(C(=N)NC(=O)NC)cc2)cc1 [compound 11]",
    "REPORTED VALUE": "ability to bind"
  },
  {
    "COMPOUND": "N=C(NCCCCCCCN)c1ccc(OCCCCCCCCOc2ccc(C(=N)NCCCCCCCN)cc2)cc1 [9b]",
    "REPORTED VALUE": "interacted"
  },
  {
    "COMPOUND": "N=C(NCCCCCCCN)c1ccc(OCCCCCCCOc2ccc(C(=N)NCCCCCCCN)cc2)cc1 [9a]",
    "REPORTED VALUE": "interacted"
  },
  {
    "COMPOUND": "N=C(NCCCCCN)c1ccc(OCCCCCOc2ccc(C(=N)NCCCCCN)cc2)cc1 [compound 8]",
    "REPORTED VALUE": "interacted"
  }
]

## Task Which binding to Ca^2+-S100B as measured using NMR value is on record for CCCN(CCCOc1ccc(C(=N)N)cc1)CCCOc1ccc(C(=N)N)cc1 [16b] ?
## Result bound weakly

## Task Similarly, N=C(N)c1ccc(OCCCN(CCCOc2ccc(C(=N)N)cc2)Cc2ccccc2)cc1 [16a] ?
## Result bound weakly
